Data provenance is ChEMBL document CHEMBL4417631.

- measuredOn: Interleukin-23 receptor (Homo sapiens)
- Sequence (Q5VWK5 whole entry): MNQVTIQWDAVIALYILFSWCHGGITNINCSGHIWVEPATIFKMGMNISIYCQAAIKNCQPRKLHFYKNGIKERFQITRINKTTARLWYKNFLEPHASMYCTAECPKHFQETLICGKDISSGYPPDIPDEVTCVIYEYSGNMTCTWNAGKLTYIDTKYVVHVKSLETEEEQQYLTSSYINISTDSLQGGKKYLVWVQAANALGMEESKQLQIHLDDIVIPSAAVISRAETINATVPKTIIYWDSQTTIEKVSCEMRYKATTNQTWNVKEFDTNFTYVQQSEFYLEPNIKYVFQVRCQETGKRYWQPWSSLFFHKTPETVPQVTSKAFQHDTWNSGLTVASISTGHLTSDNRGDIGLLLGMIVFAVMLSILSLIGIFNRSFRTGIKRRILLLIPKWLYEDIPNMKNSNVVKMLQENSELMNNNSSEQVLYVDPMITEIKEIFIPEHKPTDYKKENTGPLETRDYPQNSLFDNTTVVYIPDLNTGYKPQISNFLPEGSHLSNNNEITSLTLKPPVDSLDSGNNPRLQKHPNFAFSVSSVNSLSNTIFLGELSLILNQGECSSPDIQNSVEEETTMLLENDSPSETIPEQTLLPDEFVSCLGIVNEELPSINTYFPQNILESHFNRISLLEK
- testName: Inhibition of interleukin-23 binding to human interleukin-23 receptor incubated for 2 hrs by competitive binding ELISA
Where a SMILES comes first, the peptide text is derived from it.
endpointLabel: IC50

Examples with their reported IC50 follow.
CC(=O)N[C@@H](CS)C(=O)N[C@@H](CCCNC(=N)N)C(=O)N[C@@H](CC(=O)O)C(=O)N[C@@H](Cc1c[nH]c2ccccc12)C(=O)N[C@H](C(=O)N[C@@H](CS)C(=O)N[C@@H](Cc1ccc(O)cc1)C(=O)N[C@@H](Cc1c[nH]c2ccccc12)C(=O)N[C@@H](Cc1cnc[nH]1)C(=O)N[C@H](C(=O)N[C@@H](Cc1ccccc1)C(=O)NCC(N)=O)[C@@H](C)O)C(C)C :: 500 to 1000 nM
CC(=O)N[C@@H](CS)C(=O)N[C@@H](CCC(N)=O)C(=O)N[C@H](C(=O)N[C@@H](Cc1c[nH]c2ccccc12)C(=O)N[C@@H](CCC(N)=O)C(=O)N[C@@H](CS)C(=O)N[C@@H](Cc1ccc(O)cc1)C(=O)N[C@@H](Cc1c[nH]c2ccccc12)C(=O)N[C@@H](CCCNC(=N)N)C(=O)N[C@@H](CCCN)C(=O)N[C@@H](CC(N)=O)C(=O)NCC(=O)NCCOCC(=O)N[C@H](CCCCN)C(N)=O)[C@@H](C)O :: < 500 nM
CC(=O)N[C@@H](CS)C(=O)N[C@@H](C)C(=O)N[C@@H](CC(=O)O)C(=O)N[C@@H](Cc1c[nH]c2ccccc12)C(=O)N[C@H](C(=O)N[C@@H](CS)C(=O)N[C@@H](Cc1ccc(O)cc1)C(=O)N[C@@H](Cc1c[nH]c2ccccc12)C(=O)N[C@@H](Cc1cnc[nH]1)C(=O)N[C@H](C(=O)N[C@@H](Cc1ccccc1)C(=O)NCC(=O)N[C@H](CCCCN)C(=O)O)[C@@H](C)O)C(C)C :: 100 to 1000 nM
CC(C)[C@H](NC(=O)[C@H](Cc1c[nH]c2ccccc12)NC(=O)[C@H](CC(=O)O)NC(=O)[C@H](C)NC(=O)[C@@H](N)CS)C(=O)N[C@@H](CS)C(=O)N[C@@H](Cc1ccc(O)cc1)C(=O)N1Cc2ccccc2C[C@H]1C(=O)N[C@@H](Cc1cnc[nH]1)C(=O)N[C@H](C(=O)N[C@@H](Cc1ccccc1)C(=O)NCC(N)=O)[C@@H](C)O :: > 1000 nM
NC(=O)CC[C@H](NC(=O)[C@@H](N)CS)C(=O)N[C@@H](CO)C(=O)N[C@@H](Cc1c[nH]c2ccccc12)C(=O)N[C@@H](CCC(=O)O)C(=O)N[C@@H](CS)C(=O)N[C@@H](Cc1ccc(O)cc1)C(=O)N[C@@H](Cc1c[nH]c2ccccc12)C(=O)N[C@@H](Cc1cnc[nH]1)C(=O)N[C@@H](Cc1ccc(O)cc1)C(=O)N[C@@H](Cc1ccc(O)cc1)C(=O)NCC(N)=O (H-CQSWECYWHYYG-NH2) :: > 1000 nM
CC(C)[C@H](NC(=O)[C@H](Cc1c[nH]c2ccccc12)NC(=O)[C@H](CC(=O)O)NC(=O)[C@H](C)NC(=O)[C@@H](N)CS)C(=O)N[C@@H](CS)C(=O)N[C@@H](Cc1ccc(O)cc1)C(=O)N[C@@H](C)C(=O)N[C@@H](Cc1cnc[nH]1)C(=O)N[C@H](C(=O)N[C@@H](Cc1ccccc1)C(=O)NCC(N)=O)[C@@H](C)O :: > 1000 nM
CC(=O)N[C@@H](CS)C(=O)N[C@@H](C)C(=O)N[C@@H](CC(=O)O)C(=O)N[C@@H](Cc1c[nH]c2ccccc12)C(=O)N[C@@H](CCCCN)C(=O)N[C@@H](CS)C(=O)N[C@@H](Cc1ccc(O)cc1)C(=O)N[C@@H](Cc1c[nH]c2ccccc12)C(=O)N[C@@H](Cc1cnc[nH]1)C(=O)N[C@H](C(=O)N[C@@H](Cc1ccccc1)C(=O)NCC(=O)O)[C@@H](C)O :: > 1000 nM
CC(=O)N[C@@H](CS)C(=O)N[C@H](C(=O)N[C@H](C(=O)N[C@@H](Cc1c[nH]c2ccccc12)C(=O)N[C@H](C(=O)N[C@@H](CS)C(=O)N[C@@H](Cc1ccc(O)cc1)C(=O)N[C@@H](Cc1c[nH]c2ccccc12)C(=O)N[C@@H](Cc1cnc[nH]1)C(=O)N[C@@H](CCC(N)=O)C(=O)N[C@@H](Cc1ccc(O)cc1)C(=O)NCC(N)=O)[C@@H](C)O)[C@@H](C)O)[C@@H](C)O (Ac-CTTWTCYWHQYG-NH2) :: < 500 nM

QUERY: # input molecule: C[C@@H](O)[C@H](NC(=O)[C@@H](NC(=O)[C@@H](N)CS)[C@@H](C)O)C(=O)N[C@@H](Cc1c[nH]c2ccccc12)C(=O)N[C@@H](CCCCN)C(=O)N[C@@H](CS)C(=O)N[C@@H](Cc1ccc(O)cc1)C(=O)N[C@@H](Cc1c[nH]c2ccccc12)C(=O)N[C@@H](Cc1cnc[nH]1)C(=O)N[C@@H](CCC(N)=O)C(=O)N[C@@H](Cc1ccc(O)cc1)C(=O)NCC(N)=O (H-CTTWKCYWHQYG-NH2) ; wanted: its IC50
RESULT: 500 to 1000 nM

QUERY: Entry to check: CC(=O)NC[C@H](NC(=O)[C@H](CCCN)NC(=O)[C@H](Cc1ccc2ccccc2c1)NC(=O)[C@H](Cc1ccc(OCCN)cc1)NC(=O)[C@@H]1CSCC[C@H](NC(C)=O)C(=O)N[C@@H](CCC(N)=O)C(=O)N[C@@H]([C@@H](C)O)C(=O)N[C@@H](Cc2c[nH]c3ccccc23)C(=O)N[C@@H](CCC(N)=O)C(=O)N1)C(=O)N[C@@H](CC(N)=O)C(=O)NCC(N)=O
RESULT: 25 to 100 nM

QUERY: Entry to check: CC(=O)N[C@H]1CCSC[C@@H](C(=O)N[C@@H](Cc2ccc(F)c(F)c2)C(=O)N[C@@H](Cc2ccc3ccccc3c2)C(=O)NC(C)(C)C(=O)N[C@@H](CCC(=O)O)C(=O)N[C@@H](CC(N)=O)C(=O)NCC(N)=O)NC(=O)[C@H](CCC(N)=O)NC(=O)[C@H](Cc2c[nH]c3ccccc23)NC(=O)[C@H]([C@@H](C)O)NC(=O)[C@H](CCC(N)=O)NC1=O
RESULT: 25 to 100 nM
